# EXPERIMENT: Cytotoxicity against human HL7702 cells assessed as growth inhibition at 100 uM after 48 hrs by MTT assay relative to control
# Format: cell-based, L02
# CONDITION_SUMMARY: read-out: GI
READOUT_LABEL: inhibition at 48 h, 100 µM (%)
Value expressed in %; do not type the unit.

Completed entries (count: 3):
SMILES_STRING: COc1ccc(CC(=O)NCCNC(=O)C2(NC(=O)c3ccc(C(F)(F)F)nc3)CCN(Cc3ccccc3)CC2)cc1OC
inhibition at 48 h, 100 µM [%]: 3.3

SMILES_STRING: O=C(Cc1cccc2ccccc12)NCCNC(=O)C1(NC(=O)c2ccc(C(F)(F)F)nc2)CCN(Cc2ccccc2)CC1
inhibition at 48 h, 100 µM [%]: 87.3

SMILES_STRING: O=C(NCCNS(=O)(=O)c1cccc2cnccc12)c1cccc(O)c1
inhibition at 48 h, 100 µM [%]: 1.7

// below: inhibition at 48 h, 100 µM requested for another compound
inhibition at 48 h, 100 µM reported for this compound O=C(Cc1cccc2ccccc12)NCCNC(=O)C1(NC(=O)c2cc(C(F)(F)F)cc(C(F)(F)F)c2)CCCC1 : 46.4

---

# EXPERIMENT: Cytotoxicity against human HL7702 cells assessed as growth inhibition at 50 uM after 48 hrs by MTT assay relative to control
# Type: cell-based, L02
# CONDITION_SUMMARY: read-out: GI
READOUT_LABEL: inhibition at 48 h, 50 µM (%)
Please give a number only; it is taken to be in %.

COMPOUND: O=C(Cc1cccc2ccccc12)NCCNC(=O)C1(NC(=O)c2ccc(C(F)(F)F)nc2)CCCCC1
OBS_VALUE: 15.9
//
COMPOUND: COc1ccc(CC(=O)NCCNC(=O)C2(NC(=O)c3ccc(C(F)(F)F)nc3)CCN(Cc3ccccc3)CC2)cc1OC
OBS_VALUE: 0.8
//
COMPOUND: O=C(Cc1ccc(F)cc1)NCCNC(=O)C1(NC(=O)c2ccc(C(F)(F)F)nc2)CCN(Cc2ccccc2)CC1
OBS_VALUE: 4.5
//
COMPOUND: O=C(Cc1cccc2ccccc12)NCCNC(=O)C1(NC(=O)c2cc(C(F)(F)F)cc(C(F)(F)F)c2)CCN(Cc2ccccc2)CC1
OBS_VALUE: 81.9
//
COMPOUND: COc1cc(OC)cc(C(=O)NC2(C(=O)NCCNC(=O)Cc3cccc4ccccc34)CCN(Cc3ccccc3)CC2)c1
OBS_VALUE: 84.2

Entry O=C(Cc1cccc2ccccc12)NCCNC(=O)C1(NC(=O)CCc2cccc(O)c2)CCN(Cc2ccccc2)CC1 , inhibition at 48 h, 50 µM reported as 10.4

---

Listed here: items and their measured inhibition at 48 h, 50 µM.
# EXPERIMENT: Cytotoxicity against human QSG7701 cells assessed as growth inhibition at 50 uM after 48 hrs by MTT assay relative to control
# Format: cell-based
# CONDITION_SUMMARY: read-out: GI
The response must be a number in % with no trailing unit.

COMPOUND: O=C(Cc1cccc2ccccc12)NCCNC(=O)C1(NC(=O)c2cc(C(F)(F)F)cc(C(F)(F)F)c2)CCN(Cc2ccccc2)CC1
OBS_VALUE: 87.8
//
COMPOUND: O=C(Cc1cccc2ccccc12)NCCNC(=O)C1(NC(=O)c2ccc(C(F)(F)F)nc2)CCNCC1
OBS_VALUE: 9.5
//
COMPOUND: O=C(NCCNS(=O)(=O)c1cccc2cnccc12)C1CCCC1
OBS_VALUE: 18.6
//
COMPOUND: O=C(Cc1cccc(F)c1)NCCNC(=O)C1(NC(=O)c2ccc(C(F)(F)F)nc2)CCN(Cc2ccccc2)CC1
OBS_VALUE: 17.3
//
COMPOUND: O=C(Cc1cccc2ccccc12)NCCNC(=O)C1(NC(=O)c2cccs2)CCN(Cc2ccccc2)CC1
OBS_VALUE: 39.6

Just so you know, measured inhibition at 48 h, 50 µM for O=C(Cc1cccc2ccccc12)NCCNC(=O)C1(NC(=O)c2ccc(C(F)(F)F)nc2)CCN(Cc2ccccc2)CC1 came out at 79.6

Documented inhibition at 48 h, 50 µM of O=C(Cc1ccc(F)cc1)NCCNC(=O)C1(NC(=O)c2cccs2)CCN(Cc2ccccc2)CC1 : 18.2

Reported inhibition at 48 h, 50 µM for COc1ccc(CC(=O)NCCNC(=O)C2(NC(=O)c3ccc(C(F)(F)F)nc3)CCN(Cc3ccccc3)CC2)cc1OC was 17.4

The measurements presented in this section are drawn from ChEMBL document CHEMBL2417482.
